# Tested on: Rtkn-GFP reporter in mouse embryonic stem (mES) cells
# test.protocol: ToxTracker genotoxicity assay, Rtkn-GFP reporter induction;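 also: GFP reporter signal quantified solely in intact single cells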
# measurement.conditions: with S9 rat liver extract; concentration inducing 25% cytotoxicity; 3 h exposure, 24 h recovery
metric: Rtkn induction level

compound	metric	endpoint.result
CCCCOCC(CN1CC1)OC(=O)NC1CCC(CC2CCC(NC(=O)OC(COCCCC)CN3CC3)CC2)CC1 (stereo not drawn)	Rtkn induction level	1.6 fold
CCCCOCC(CN1CC1)OC(=O)NCCCCCCn1c(=O)n(CCCCCCNC(=O)OC(COCCCC)CN2CC2)c(=O)n(CCCCCCNC(=O)OC(COCCCC)CN2CC2)c1=O (stereo not drawn)	Rtkn induction level	1.1 fold
CCCCCCCCCC(=O)OCC(CN1CC1)OC(=O)NCCCCCCn1c(=O)n(CCCCCCNC(=O)OC(COC(=O)CCCCCCCCC)CN2CC2)c(=O)n(CCCCCCNC(=O)OC(COC(=O)CCCCCCCCC)CN2CC2)c1=O (stereo not drawn)	Rtkn induction level	1.5 fold
